# Tested on: MKL-2
# Protocol details: qHTS assay to identify novel small-molecules to repurpose for Merkel cell carcinoma treatment (AID 1296009); note: nearly all actives have a fitted effect of over 60% in size
# Condition: MCC and control cell lines, CellTiter-Glo viability, 72 h; series mostly up to 46 µM
Records with an inconclusive call do not appear. Calls of active or inactive are those of the source. Calls come from the whole dose curve; as a rule, active = well fitted inhibition curve with a large enough effect; inconclusive = small, poorly fitted or top-dose-only effect; inactive = flat fitted curve, though single readings scatter.
API: response.call in active, inactive

                                   molecule  assigned_label
0  Cc1nc(Nc2n[nH]c3c2CN(C(=O)N[C@H](CN(C)C)c2ccccc2)C3(C)C)c2sccc2n1          active
1      COc1ccc(C=Cc2cc(OC)c(OC)c(OC)c2)cc1O        inactive
2  CC1COC2(CCN(c3nc(=O)c4cc(C(F)(F)F)cc([N+](=O)[O-])c4s3)CC2)O1 (centres undefined)        inactive
3  C=C1C(=CC=C2CCCC3(C)[C@@H]([C@H](C)C=CC=CC(O)(CC)CC)CC[C@@H]23)C[C@@H](O)C[C@@H]1O (some centres undefined)          active

Let's switch to this molecule now.
Challenge: Assay result, entry N#Cc1c(O)c2c(-c3ccc(-c4ccccc4O)cc3)csc2[nH]c1=O — outcome?
Response given: inactive

###

# Protocol details: qHTS of pediatric cancer cell lines to identify multiple opportunities for drug repurposing: Confirmatory screen for MG 63 (6-TG R) cells (AID 1347119); note: nearly all actives have a fitted effect of over 55% in size
# Condition: MG-63 (6-TG resistant) osteosarcoma viability; series mostly up to 45.9 µM
Inconclusive results are not listed. The source made the active and inactive calls. Calls follow the shape of the dose curve; as a rule, active = well fitted cell-killing curve with a large enough effect; inconclusive = small, poorly fitted or top-dose-only effect, or effect the other way; inactive = no such curve, though single readings can be large or run the other way.
API: response.call in active, inactive

Reference set, count: 4
Smiles text	Assigned label
C=CC(=O)Nc1cc2c(Nc3ccc(F)c(Cl)c3)ncnc2cc1C#CC(C)(C)N1CCN(C)CC1	active
C[C@@]12O[C@@H](C[C@]1(O)CO)n1c3ccccc3c3c4c(c5c6ccccc6n2c5c31)CNC4=O	active
CC1(C)CCC(c2ccc(Cl)cc2)=C(CN2CCN(c3ccc(C(=O)NS(=O)(=O)c4ccc(N[C@H](CCN5CCOCC5)CSc5ccccc5)c(S(=O)(=O)C(F)(F)F)c4)cc3)CC2)C1	inactive
CN(C)CC(C)(C)CNc1nn2c(-c3ccccc3)nnc2cc1C1CCC1	inactive

Let's switch to this molecule now.
Challenge: Assay result, entry CC(=O)Nc1nc(C)c(-c2ccc(Cl)c(S(=O)(=O)NCCO)c2)s1 — outcome?
Response given: active

###

# Protocol details: qHTS assay to identify inhibitors of the type 1 interferon - major histocompatibility complex class I in skeletal muscle: Counter screen cell viability and HiBit confirmation (AID 1347412); note: potency is the fitted concentration of half-maximal effect; nearly all actives have a fitted effect of over 60% in size
# Condition: iHSKM muscle cells + IFN-b, HiBiT or CellTiter-Glo, 24 h; Viability
Results filed as inconclusive are left out. Active and inactive are the calls of the source. The call rests on the fitted dose curve; in most records, active means well fitted inhibition curve with a large enough effect; inconclusive means small, poorly fitted or top-dose-only effect; inactive means no such curve, though single readings can be large or run the other way.
Quantity measured: Potency

# example entries with known answers
In [3]: df
Out[3]:
                                smiles_text    value_observed
0  Cc1cc(CN2CCN(c3c(Br)cnc4nc(-c5ccc(N6CCN(C)CC6)cc5)[nH]c34)CC2)no1  11.1 µM (active)
1  CN1CCN(c2cc(C(=O)Nc3ccc4c(c3)-c3c(c(C(N)=O)nn3-c3ccc(F)cc3)CC4)c(Cl)cn2)CC1  27.9 µM (active)
2  CN1CCC(CNc2ccc3ncc(-c4cccc(OC(F)(F)F)c4)n3n2)CC1  31.3 µM (active)
3  CNC(=O)c1c(F)cccc1Nc1nc(Nc2cc3c(cc2OC)CCN3C(=O)CN(C)C)nc2[nH]ccc12  24.9 µM (active)

Give Potency for each of the items listed below.
1. COc1cccc2c(NCc3ccccc3)nc(-n3c(N)nc4ccccc43)nc12
2. CC(C)c1ccc(Cn2ccc3c4c(N)nc(NC5CC5)nc4ccc32)cc1

Response given:
17.6 µM (active)
27.9 µM (active)
